Reference source: patent US11465993B2

Recorded absorbance maximum (λmax, abs), one value per entry.
# ASSAY OVERVIEW: Absorbance spectra of cyanine fluorophores in different solvents (absorbance maximum, molar absorptivity)
# CONDITION CONTEXT: methanol

>  <COMPOUND>
CN1/C(=C/C=C2\CCC3CCC(/C=C/C4=[N+](C)c5ccccc5C4(C)C)=C(Cl)C3=C2Cl)C(C)(C)c2ccccc21 (centres unmarked) [N-methyl-NIR-990]

>  <absorbance maximum (λmax, abs) / nm>
922

$$$$
>  <COMPOUND>
CC1(C)C(/C=C/C2=C3C4=C(/C(=C/C=C5/N(CCCCS(=O)(=O)O)c6ccc(S(=O)(=O)[O-])cc6C5(C)C)CCC4CC2)c2cc(C(=O)O)ccc23)=[N+](CCCCS(=O)(=O)O)c2ccc(S(=O)(=O)O)cc21.N.N.N (centres unmarked) [Compound 8]

>  <absorbance maximum (λmax, abs) / nm>
1072

$$$$
>  <COMPOUND>
CC1(C)C(/C=C/C2=C3Oc4ccc(C(=O)O)cc4OC4=C3C(CC2)CC/C4=C\C=C2\N(CCCCS(=O)(=O)[O-])c3ccc(S(=O)(=O)[O-])cc3C2(C)C)=[N+](CCCCS(=O)(=O)[O-])c2ccc(S(=O)(=O)[O-])cc21.[Na+].[Na+].[Na+] (centres unmarked) [Compound 6]

>  <absorbance maximum (λmax, abs) / nm>
866

$$$$
>  <COMPOUND>
CN1/C(=C/C=C2\CCC3CCC(/C=C/C4=[N+](C)c5ccccc5C4(C)C)=C4C3=C2c2ccccc24)C(C)(C)c2ccccc21 (centres unmarked) [Compound 25]

>  <absorbance maximum (λmax, abs) / nm>
1066

$$$$
>  <COMPOUND>
CC1(C)C(/C=C/C2=C3Oc4ccc(C(=O)N(CCCS(=O)(=O)O)CCC(=O)O)cc4OC4=C3C(CC2)CC/C4=C\C=C2\N(CCCCS(=O)(=O)O)c3ccc(S(=O)(=O)[O-])cc3C2(C)C)=[N+](CCCCS(=O)(=O)O)c2ccc(S(=O)(=O)O)cc21.N.N.N.N (centres unmarked) [Compound 10]

>  <absorbance maximum (λmax, abs) / nm>
869

$$$$

---

# ASSAY OVERVIEW: Emission (fluorescence) spectra of cyanine fluorophores in different solvents
# CONDITION CONTEXT: pH 7.4 PBS; excitation wavelength per compound (figure legends)

>  <COMPOUND>
CC1(C)C(/C=C/C2=C3Sc4ccccc4SC4=C3C(CC2)CC/C4=C\C=C2\N(CCCCS(=O)(=O)[O-])c3ccc(S(=O)(=O)[O-])cc3C2(C)C)=[N+](CCCCS(=O)(=O)[O-])c2ccc(S(=O)(=O)[O-])cc21.[Na+].[Na+].[Na+] (stereo not drawn) [NIR-950]

>  <RESULT UNIT>
nm

>  <emission maximum (λmax, emiss)>
950

$$$$
>  <COMPOUND>
CC1(C)C(/C=C/C2=C3Oc4ccc(C(=O)N(CCCS(=O)(=O)O)CCC(=O)O)cc4OC4=C3C(CC2)CC/C4=C\C=C2\N(CCCCS(=O)(=O)O)c3ccc(S(=O)(=O)[O-])cc3C2(C)C)=[N+](CCCCS(=O)(=O)O)c2ccc(S(=O)(=O)O)cc21.N.N.N.N (stereo not drawn) [Compound 10]

>  <RESULT UNIT>
nm

>  <emission maximum (λmax, emiss)>
896

$$$$
>  <COMPOUND>
CC1(C)C(/C=C/C2=C3Oc4ccc(C(=O)O)cc4OC4=C3C(CC2)CC/C4=C\C=C2\N(CCCCS(=O)(=O)[O-])c3ccc(S(=O)(=O)[O-])cc3C2(C)C)=[N+](CCCCS(=O)(=O)[O-])c2ccc(S(=O)(=O)[O-])cc21.[Na+].[Na+].[Na+] (stereo not drawn) [Compound 6]

>  <RESULT UNIT>
nm

>  <emission maximum (λmax, emiss)>
896

$$$$
>  <COMPOUND>
CC1(C)C(/C=C/C2=C3Oc4ccc(CCC(=O)O)cc4OC4=C3C(CC2)CC/C4=C\C=C2\N(CCCCS(=O)(=O)[O-])c3ccc(S(=O)(=O)[O-])cc3C2(C)C)=[N+](CCCCS(=O)(=O)[O-])c2ccc(S(=O)(=O)[O-])cc21.[Na+].[Na+].[Na+] (stereo not drawn) [NIR-900-Et]

>  <RESULT UNIT>
nm

>  <emission maximum (λmax, emiss)>
900

$$$$
>  <COMPOUND>
CC1(C)C(/C=C/C2=C3C4=C(/C(=C/C=C5/N(CCCCS(=O)(=O)O)c6ccc(S(=O)(=O)[O-])cc6C5(C)C)CCC4CC2)c2cc(C(=O)O)ccc23)=[N+](CCCCS(=O)(=O)O)c2ccc(S(=O)(=O)O)cc21.N.N.N (stereo not drawn) [Compound 8]

>  <RESULT UNIT>
nm

>  <emission maximum (λmax, emiss)>
1084

$$$$
>  <COMPOUND>
CC1(C)C(/C=C/C2=C3Oc4ccccc4OC4=C3C(CC2)CC/C4=C\C=C2\N(CCCCS(=O)(=O)[O-])c3ccccc3C2(C)C)=[N+](CCCCS(=O)(=O)[O-])c2ccccc21.[Na+] (stereo not drawn) [BisSO3-NIR-890]

>  <RESULT UNIT>
nm

>  <emission maximum (λmax, emiss)>
890

$$$$
